Biological target: follicle-stimulating hormone (FSH) receptor (Rattus norvegicus, UniProt P20395)
Construct: endogenous in cells; host or cells: primary rat granulosa cells
Sequence (P20395 18-692): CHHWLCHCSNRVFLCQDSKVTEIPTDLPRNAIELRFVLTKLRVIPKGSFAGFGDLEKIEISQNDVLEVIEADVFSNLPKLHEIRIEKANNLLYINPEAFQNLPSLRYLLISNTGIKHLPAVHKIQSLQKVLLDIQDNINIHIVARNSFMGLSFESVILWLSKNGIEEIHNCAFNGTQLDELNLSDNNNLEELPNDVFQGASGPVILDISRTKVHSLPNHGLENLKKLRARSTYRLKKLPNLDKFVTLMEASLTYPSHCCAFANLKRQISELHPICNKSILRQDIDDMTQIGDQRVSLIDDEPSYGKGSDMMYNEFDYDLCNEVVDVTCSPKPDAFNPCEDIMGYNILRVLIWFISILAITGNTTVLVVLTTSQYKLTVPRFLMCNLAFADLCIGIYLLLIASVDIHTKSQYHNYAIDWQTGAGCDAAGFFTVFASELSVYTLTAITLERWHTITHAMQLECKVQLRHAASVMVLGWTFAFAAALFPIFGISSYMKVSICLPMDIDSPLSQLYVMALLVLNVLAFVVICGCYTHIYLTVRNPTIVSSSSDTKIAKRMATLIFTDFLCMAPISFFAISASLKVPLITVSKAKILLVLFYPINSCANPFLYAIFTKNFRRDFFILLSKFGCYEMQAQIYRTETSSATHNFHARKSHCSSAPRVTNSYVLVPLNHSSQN
Assay: Rat granulosa EC50 FSH (Assay B)
Type: cell-based
Conditions: rat granulosa cells; read-out: Assay B: Rat granulosa EC50 FSH
pEC50: −log10 of the molar value.
observation-type: pEC50

# input Entry under review: COc1cc2c(cc1C#N)-c1c(c(C(=O)N(C)C(C)(C)C)nn1-c1ccsc1)CO2 . Reported pEC50?
# output 5.30 to 6.00

# input Entry under review: [2H]C([2H])([2H])N(C(=O)c1nn(-c2ccsc2)c2c1COc1cc(OC)c(-c3ccn(C)c3)cc1-2)C1CCOC1 (stereo not shown) . Reported pEC50?
# output 6.00 to 7.00

# input Entry under review: [2H]C([2H])([2H])OCC1(C)CCCN1C(=O)c1nn(-c2ccsc2)c2c1COc1cc(OC)c(-c3ccn(C)c3)cc1-2 (stereo not shown) . Reported pEC50?
# output > 7.00

# input Entry under review: COc1cc2c(cc1-c1ncco1)-c1c(c(C(=O)N(C)C(C)(C)C)nn1-c1ccsc1)CO2 . Reported pEC50?
# output 6.00 to 7.00

# input Entry under review: COc1cc2c(cc1-c1ccn(C)c1)-c1c(c(C(=O)N3CCN(C(=O)OC(C)(C)C)CC3(C)C)nn1-c1ccsc1)CO2 . Reported pEC50?
# output 6.00 to 7.00

# input Entry under review: COc1cc2c(cc1OC(C)C)-c1c(c(C(=O)N(C)C(C)(C)C)nn1-c1ccsc1)CO2 . Reported pEC50?
# output 5.30 to 6.00

# input Entry under review: COc1cc2c(cc1-c1ccn(C)c1)-c1c(c(C(=O)NC3(CCO)COC3)nn1-c1ccsc1)CO2 . Reported pEC50?
# output 6.00 to 7.00

# input Entry under review: COc1cc2c(cc1-c1ccn(C)n1)-c1c(c(C(=O)N3CCNCC3(C)C)nn1-c1ccsc1)CO2 . Reported pEC50?
# output 6.00 to 7.00

# input Entry under review: CCCn1cc(-c2cc3c(cc2OC)OCc2c(C(=O)N4CCOCC4(C)C)nn(-c4ccsc4)c2-3)cn1 . Reported pEC50?
# output > 7.00

# input Entry under review: COc1cc2c(cc1CC(C)C)-c1c(c(C(=O)N3CCCN(C(=O)C4CCCO4)CC3)nn1-c1ccsc1)CO2 (stereo not shown) . Reported pEC50?
# output < 5.30

# input Entry under review: COc1cc2c(cc1-c1cnn(CCN3CCOCC3)c1)-c1c(c(C(=O)N3CCOCC3(C)C)nn1-c1ccsc1)CO2 . Reported pEC50?
# output 6.00 to 7.00

# input Entry under review: [2H]C([2H])([2H])OCC1(N(C(=O)c2nn(-c3ccsc3)c3c2COc2cc(OC)c(-c4ccn(C)c4)cc2-3)C([2H])([2H])[2H])COC1 . Reported pEC50?
# output 6.00 to 7.00

# input Entry under review: [2H]C([2H])([2H])OCC1(C)CCCN1C(=O)c1nn(-c2ccsc2)c2c1COc1cc(OC)c(-c3ccn(C)n3)cc1-2 (stereo not shown) . Reported pEC50?
# output > 7.00

# input Entry under review: COc1cc2c(cc1OC(C)C)-c1c(c(C(=O)N3CCCC(C(=O)N4CCC4)CC3)nn1-c1ccsc1)CO2 (stereo not shown) . Reported pEC50?
# output < 5.30

# input Entry under review: COc1cc2c(cc1-c1ccn(C)n1)-c1c(c(C(=O)N3CCN(C)CC3(C)C)nn1-c1ccsc1)CO2 . Reported pEC50?
# output > 7.00

# input Entry under review: COc1cc2c(cc1C1=CCCCO1)-c1c(c(C(=O)N(C)C(C)(C)C)nn1-c1ccsc1)CO2 . Reported pEC50?
# output 6.00 to 7.00

# input Entry under review: [2H]C([2H])([2H])n1cc(-c2cc3c(cc2OC)OCc2c(C(=O)N4CCOCC4(C)C)nn(-c4ccsc4)c2-3)cn1 . Reported pEC50?
# output 6.00 to 7.00

# input Entry under review: COc1cc2c(cc1-c1c[nH]nc1C)-c1c(c(C(=O)N3CCOCC3(C)C)nn1-c1ccsc1)CO2 . Reported pEC50?
# output 6.00 to 7.00

# input Entry under review: COc1cc2c(cc1-c1cccn1C)-c1c(c(C(=O)N3CCOCC3(C)C)nn1-c1ccsc1)CO2 . Reported pEC50?
# output 5.30 to 6.00

# input Entry under review: COc1cc2c(cc1CC(C)C)-c1c(c(C(=O)N(C)C(C)(C)C)nn1-c1cccs1)CO2 . Reported pEC50?
# output 5.30 to 6.00

# input Entry under review: COc1cc2c(cc1C1CCOC1)-c1c(c(C(=O)N(C)C(C)(C)C)nn1-c1ccsc1)CO2 (stereo not shown) . Reported pEC50?
# output 6.00 to 7.00

# input Entry under review: COc1cc2c(cc1SCC(C)C)-c1c(c(C(=O)N3CCOCC3(C)C)nn1-c1ccsc1)CO2 . Reported pEC50?
# output 6.00 to 7.00

# input Entry under review: COc1cc2c(cc1SC(C)C)-c1c(c(C(=O)N(C)C(C)(C)C)nn1-c1ccsc1)CO2 . Reported pEC50?
# output 6.00 to 7.00

# input Entry under review: COc1cc2c(cc1-c1ccn(C)c1)-c1c(c(C(=O)N3CCOCC3(C)C)nn1-c1ccsc1)CO2 . Reported pEC50?
# output 5.30 to 6.00

# input Entry under review: COc1cc2c(cc1-c1c(C)n[nH]c1C)-c1c(c(C(=O)N3CCOCC3(C)C)nn1-c1ccsc1)CO2 . Reported pEC50?
# output 6.00 to 7.00

# input Entry under review: COc1cc2c(cc1-c1ccn(C)n1)-c1c(c(C(=O)N3CCOCC34COC4)nn1-c1ccsc1)CO2 . Reported pEC50?
# output 5.30 to 6.00

# input Entry under review: COc1cc2c(cc1OC(C)C)-c1c(c(C(=O)NCCCNC(=O)C3CCC3)nn1-c1ccsc1)CO2 . Reported pEC50?
# output < 5.30

# input Entry under review: COc1cc2c(cc1-c1cn[nH]c1)-c1c(c(C(=O)N(C)C(C)(C)C)nn1-c1ccsc1)CO2 . Reported pEC50?
# output > 7.00
